- Tested on: UACC-257 melanoma
- measurementProtocol: NCI-60 one-dose screen, 48 h (100 = growth as untreated, 0 = no growth, -100 = all killed)
- runParameters: 10 µM
Compounds without any hit were thinned out: in the full panel of roughly 83,000, 20% have a hit.
Reported growth maps to class as: interval 1 = under 40%, interval 2 = from 40% up to 80%, interval 3 = 80% and over

INSERT INTO results (compound, grouplabel) VALUES
  ('CC(=O)N1N=C(c2ccc(Cl)cc2)CC1c1sc(Cl)nc1Cl (centres undefined)', 'interval 3'),
  ('COC(=O)C(C(C[N+](=O)[O-])c1ccccc1)=P(c1ccccc1)(c1ccccc1)c1ccccc1 (centres undefined)', 'interval 3'),
  ('COc1cc(CNc2ccccc2C(=O)N2CCN(C(=O)c3cc(-c4cc(OC)c(OC)c(OC)c4)n4nc(-c5ccccc5)cc4n3)CC2)cc(OC)c1OC', 'interval 1'),
  ('Cc1ccc(-c2n[nH]c(=O)c3noc(-c4ccc(C)cc4)c23)cc1', 'interval 2'),
  ('COC(=O)c1c(-c2ccccc2)csc1NC(=O)c1c(-c2ccccc2)noc1C', 'interval 2'),
  ('COc1ccc(-c2cc(/C=C/C(=O)c3cc(OC)c(OC)c(OC)c3)[nH]n2)cc1OC', 'interval 2'),
  ('FC(F)(F)c1ccc(-c2cnc(-n3cc(COCCN4CCCCC4)nn3)nc2NC2CCCCCC2)cc1', 'interval 1'),
  ('O=C1/C(=C/c2ccc([N+](=O)[O-])o2)Oc2ccccc21', 'interval 1');

###

- Tested on: UACC-62 melanoma
- measurementProtocol: NCI-60 one-dose screen, 48 h
- runParameters: 10 µM
Compounds without any hit were thinned out: in the full panel of roughly 83,000, 20% have a hit. The source made the active and inactive calls. How the source made its calls: active means growth percent below 10; inactive means the rest.
Classes used: t (active), f (inactive)

INSERT INTO results (compound, grouplabel) VALUES
  ('COc1cc(Cc2cc(-c3ccc(Cl)cc3)n[nH]c2=O)ccc1O', 'f'),
  ('CCOC(=O)C(=Cc1ccc(Br)cc1)C(=O)OCC', 't'),
  ('N#CSCC1CC(O)(c2ccccc2)CC(c2ccc(Cl)cc2)O1 (stereo not given)', 'f'),
  ('CC(C)(C)NC/C(=C\c1ccccc1)C(=O)c1ccccc1', 't'),
  ('O=S(=O)(NCCCNc1nccc(-c2c(-c3ccc(F)cc3)nc3sccn23)n1)c1ccc(F)cc1', 'f'),
  ('C=C1c2c(C)nn(-c3ccc(OC)cc3)c2N(C)C23C[C@@H]1C1(C)c4c(C)nn(-c5ccc(OC)cc5)c4N(C)C(C)(C[C@H]12)C3 (stereo not given in full)', 'f'),
  ('O=S(=O)(NCCNc1nccc(-c2c(-c3ccc(F)cc3)nc3sccn23)n1)c1ccc2ccccc2c1', 'f'),
  ('CS(=O)(=O)Nc1cccc(-c2cc(-c3ccccc3Cl)c(C#N)c(N)n2)c1', 'f'),
  ('O=C(/C(=C/c1ccccc1)CN1CCCCC1)c1ccccc1', 't'),
  ('COc1cc(NC(=O)c2sc3nc4c(cc3c2N)C(O)CCC4)cc(OC)c1 (stereo not given)', 'f');

###

- Tested on: HCT-116 colon
- measurementProtocol: NCI-60 one-dose screen, 48 h
- runParameters: 10 µM
The panel holds about 83,000 compounds, 20% with a hit somewhere; the sample as a whole holds those more often. Calls of active or inactive are those of the source. The calls were made as follows: active = growth percent below 10; inactive = the rest.
Classes used: active, inactive

INSERT INTO assay_data (molecule, grouplabel) VALUES
  ('C/C(=N\Nc1nc2ccccc2s1)c1ccncn1', 'active'),
  ('COc1cc(CNCCCCCCN2C(=O)c3cccc4cccc(c34)C2=O)ccc1O', 'inactive'),
  ('Nc1ncn([C@@H]2O[C@H](CO)[C@@H](O)[C@H]2O)c(=O)n1', 'active'),
  ('O=C(CCCCC[P+](c1ccccc1)(c1ccccc1)c1ccccc1)NC(COC(=O)C(Cl)Cl)(COC(=O)C(Cl)Cl)COC(=O)C(Cl)Cl', 'inactive'),
  ('COc1cc(NC(=O)c2sc3nc4c(cc3c2N)C(O)CCC4)cc(OC)c1 (configuration not stated)', 'inactive'),
  ('CCCC1(CC(=O)O)OCCc2c1[nH]c1ccccc21 (configuration not stated)', 'inactive'),
  ('c1ccc(CO[C@H]2CO[C@H]3[C@@H]2OC[C@H]3OCc2ccccc2)cc1', 'inactive'),
  ('c1ccc([C@H]2CN3CCSC3=N2)cc1', 'inactive'),
  ('COc1ccc(/C=C/C(=O)Nc2ccc(-c3nc4ccc(F)cc4s3)cc2)cc1', 'inactive'),
  ('Cc1cccc(C)c1NC(=O)c1sc2nc3c(cc2c1N)C(=O)CCC3', 'inactive'),
  ('COc1cccc(C2C3=C(COC3=O)N(CCO)c3cc(OC)ccc32)c1 (configuration not stated)', 'inactive'),
  ('CSc1nn(-c2ccccc2)c2ncnc(Oc3ccc(C)cc3)c12', 'inactive'),
  ('N#Cc1cc(-c2cc3ccccc3o2)oc1N', 'active'),
  ('O=C1/C(=C\c2ccccc2)CN(C(=O)c2ccccc2F)C/C1=C\c1ccccc1', 'active'),
  ('O=C1OCC2=C1C(c1cccc(Cl)c1)c1cc3c(cc1N2CCO)CCC3 (configuration not stated)', 'active'),
  ('COc1ccc2c(c1)N(CCO)C1=C(C(=O)OC1)C2c1ccc(OC)c(OC)c1 (configuration not stated)', 'inactive'),
  ('CSc1nn(-c2ccccc2)c2ncnc(Oc3ccccc3)c12', 'inactive'),
  ('Cc1[nH]nc2c1C(c1cnn(C)c1)C(C#N)=C(N)O2 (configuration not stated)', 'inactive'),
  ('COc1ccc2c(c1)C(=O)c1c-2c(=O)n(CCCN(C)C)c2cc(OC)c(OC)cc12', 'inactive'),
  ('O=C1OCC2=C1C(c1cccc(Br)c1)c1cc3c(cc1N2CCO)CCC3 (configuration not stated)', 'active'),
  ('O=C(O)CC(Cl)C(Cl)CC(=O)O (configuration not stated)', 'inactive'),
  ('ClCCOCCn1cnc2c(Cl)nc(Cl)nc21', 'active');

###

- Tested on: MOLT-4 leukemia
- measurementProtocol: NCI-60 one-dose screen, 48 h
- runParameters: 10 µM
The panel holds about 83,000 compounds, 20% with a hit somewhere; the sample as a whole holds those more often. Calls of active or inactive are those of the source. Rule for the calls: active = growth percent below 10; inactive = the rest.
Classes used: active, inactive

INSERT INTO assay_data (smilesstructure, grouplabel) VALUES
  ('O=C(Nc1ccncc1)C(=O)c1cn(S(=O)(=O)c2ccc(F)cc2)c2ccccc12', 'inactive'),
  ('Cc1cc(C)c(CCc2cc(C)c(C)cc2C)cc1C', 'inactive'),
  ('O=C1CC[C@@H]2CCCC[C@@H]2C1', 'inactive'),
  ('COc1ccc2c(c1)-c1c(c3cc(OC)ccc3n(CCN(C)C)c1=O)C2=O', 'active'),
  ('COc1ccc(-c2nn(-c3cccc(NC(=O)c4ccc(N5CCOCC5)c(C(F)(F)F)c4)c3)cc2-c2ccncc2)cc1Cl', 'inactive');

###

molecules and their reported growth
- System: RXF 393 renal
- measurementProtocol: NCI-60 one-dose screen, 48 h (100 = growth as untreated, 0 = no growth, -100 = all killed)
- runParameters: 10 µM
The panel holds about 83,000 compounds, 20% with a hit somewhere; the sample as a whole holds those more often. Activity calls are given as the source filed them. The calls were made as follows: active = growth percent below 10; inactive = the rest.
readoutName: growth

INSERT INTO results (molecule, result) VALUES
  ('C=C(C(=O)c1ccccc1)C(NC(C)(C)C)c1ccccc1 (stereo unspecified)', '-56.1% (active)'),
  ('COc1ccc(OC)c(NC(=O)c2sc3nc4c(cc3c2N)C(=O)CCC4)c1', '85.4% (inactive)'),
  ('Cc1nc2c(c(=O)[nH]1)OCN(Cc1ccccc1)C2', '118% (inactive)'),
  ('COc1cc2cc3c(nc2cc1OC)CCN3Cc1ccc(NC(=O)Nc2cc(C(F)(F)F)cc(C(F)(F)F)c2)cc1', '82.5% (inactive)'),
  ('CC(C)=CCc1ccc(O)c(=O)cc1C(C)C', '12.7% (inactive)'),
  ('COC(=O)c1c(-c2ccccc2)csc1NC(=O)c1c(-c2ccccc2)noc1C', '38.8% (inactive)'),
  ('O=C(CCCCC[P+](c1ccccc1)(c1ccccc1)c1ccccc1)NC(COC(=O)C(Cl)Cl)(COC(=O)C(Cl)Cl)COC(=O)C(Cl)Cl', '101% (inactive)'),
  ('CCCC(F)C(=O)O (stereo unspecified)', '117% (inactive)'),
  ('CCc1ccc2c(c1)N(CCO)C1=C(C(=O)OC1)C2c1ccccc1 (stereo unspecified)', '94.3% (inactive)'),
  ('COc1cc(-c2cc(/C=C3\C(=O)Nc4ccc(Cl)cc43)[nH]n2)cc(OC)c1OC', '69.2% (inactive)'),
  ('COc1ccc(-c2nc3ccccn3c2-c2nnc(-c3cc(OC)c(OC)c(OC)c3)o2)cc1', '74.3% (inactive)');

This collection of values is drawn from PubChem BioAssay (NCI).
